# System: SK-OV-3 ovarian
# run.description: NCI-60 one-dose screen, 48 h
# test.settings: 10 µM unless noted
# Description: Growth inhibition of the SK-OV-3 human tumor cell line is measured as a screen for anti-cancer activity. Cells are grown in 96 well plates and exposed to the test compound for 48 hours. Compounds are tested at a single concentration, which is 10^-5 M for most compounds. The reported endpoint is percent growth (GI% or GIPRCNT), where numbers from 0 - 100% represent growth inhibition, and numbers from -100% - 0 represent cell death. For example, a value of 40 represents 60% growth inhibition. […]
This is part of a sample that, as a whole, favours compounds with a hit. Of some 83,000 tested, about 20% had one in any assay. Activity calls are given as the source filed them. The calls were made as follows: active = growth percent below 10; inactive = the rest.
Use one of these outcomes when replying: 1 (yes) = active, 0 (no) = inactive

>>> print(df.to_string())
                                   molecule     study_system   label
0  COc1cc(/C=C/C(=O)c2c(C)oc3nc[nH]c(=O)c23)cc(OC)c1OC  SK-OV-3 ovarian  0 (no)

Q) Answer briefly: the call reported for `O=C(COc1ccc(-c2nc3cc(Cl)c(Cl)cc3[nH]2)cc1)N=Nc1c(O)[nH]c2ccccc12` in this assay.
A) 1 (yes)

Q) Please share the test call associated with `COc1cc(C=Nc2oc(-c3ccccc3)c(-c3ccccc3)c2C#N)cc(CN2CCCCC2)c1O` .
A) 0 (no)

Q) Identify the outcome logged in this assay for the molecule shown: NC(=NC1C2CC3CC(C2)CC1C3)Nc1ccc(I)cc1 (stereo not given)
A) 0 (no)

Q) Lab log entry: `CC(C)(C)c1cc(/C=N\NC(=O)/C=C/C=C/c2ccc3c(c2)OCO3)c(O)c(C(C)(C)C)c1` — outcome as called in the assay?
A) 0 (no)

Q) Any idea what this test logged for `Cc1oc(-c2ccc(Cl)cc2Cl)cc1C(=O)Nc1nccs1` ?
A) 0 (no)

Q) Outcome logged for `O=C(CN1CCCCC1)Nc1ccc2oc(=O)ccc2c1` in this assay:
A) 0 (no)

---

# System: HCT-116 colon
# run.description: NCI-60 one-dose screen, 48 h (100 = growth as untreated, 0 = no growth, -100 = all killed)
# test.settings: 10 µM unless noted
About 83,000 compounds went through this panel and 20% of them were active in at least one assay; those are over-represented in the sample as a whole.
So basically, if growth comes in under 30% it's MET, and if it's 30% or more it's NOT MET.

                                   compound    label
0  O=C(N=Nc1c(O)[nH]c2ccccc12)c1cc(-c2ccccc2)on1  NOT MET

Q) Problem: For the compound `COc1ccc(S(=O)(=O)N2CCCCC2)cc1NC(=O)c1[nH]c(C)c2c1CCCCC2=O` , is growth under 30%?
A) MET

Q) growth under 30%? Item: `COc1ccc2c(c1)C(=O)/C(=C/c1ccccn1)CC2`
A) MET

Q) Is growth strictly under 30% for the entry `C=C(C)C(=O)Nc1ccc(NC(C)C)cc1` ?
A) NOT MET

Q) Decide: growth of `O=C1c2c(O)cc(O)cc2-c2c(-c3ccc(O)cc3)oc3cc(O)cc1c23` strictly below 30%?
A) NOT MET

Q) Take the compound CCOC(=O)C(C)(C#N)C1C=CCCC1 (stereo unspecified) and say whether its growth is less than 30%.
A) NOT MET

Q) Decide: growth of `C=C1C(=O)O[C@H]2[C@H]1CC/C(COC(=O)c1cc3cc(OC)ccc3[nH]1)=C\CC[C@@]1(C)O[C@@H]21` strictly below 30%?
A) MET

Q) Lab note: confirm whether the reported growth for this compound is below 30%, equality not counting. compound: `O=C1CSC(=S)N1CCc1ccc(O)cc1`
A) NOT MET

Q) Here's an entry: CC[N+](CC)=c1sc2c(s1)C(c1ccc(Cl)cc1)Oc1ccc(Cl)cc1-2 (stereo unspecified) . Is its growth below 30%?
A) MET

Q) growth under 30%? Item: `COc1ccc2cc(-c3nn(-c4ccc(C(=O)O)cc4)cc3CO)ccc2c1`
A) NOT MET

Q) Lab note: growth threshold 30%. Does this compound come in strictly under it? `Nc1ccc(-c2cc3c(Nc4ccc(Oc5cccc(C(F)(F)F)c5)c(Cl)c4)ncnc3s2)cc1`
A) NOT MET

Q) Determine whether this compound shows growth lower than 30% (ties excluded): `O=C(COc1cccc(/C=C2\COc3ccccc3C2=O)c1)Nc1nccs1`
A) MET

Q) Please state whether growth is below 30% for `COc1ccc(/C=C\c2cc(OC)c(OC)c(OC)c2)cc1OC(=O)c1cccc(Cn2cc(CCOC(=O)[C@H](N)Cc3cn(C)c4ccccc34)nn2)c1`
A) MET

Q) Hello, I'm reviewing records and need to know if growth of `COC(=O)c1ccc(Cn2cnc3c(N)ncnc32)cc1` is below 30%. Could you check?
A) NOT MET

Q) Field: below-cutoff. Rule: recorded growth strictly less than 30%. Subject: `Cc1cc(N2CCN(c3ccnc4cc(Cl)ccc34)CC2)nc(N2CCOCC2)n1`
A) NOT MET

Q) Lab note: confirm whether the reported growth for this compound is below 30%, equality not counting. compound: `N#Cc1nnn(-c2ccc(S(N)(=O)=O)cc2)c1NC(=O)CCl`
A) NOT MET
